Attribution: patent US20240166765A1

molecular target: human Tissue Factor on MDA-MB-231 cells (human, UniProt P13726 33-295); experiment: cell-based or functional assay
Readout Label: % IL8, 2.56 nM Ab (%)
Please respond with the number in % and leave the unit unwritten.

Consider the worked cases shown below.
{"columns": ["Binder", "Measure Unit", "% IL8, 2.56 nM Ab"],
 "data": [
  ["25A (antibody, V domains shown, Human anti-TF IgG1) VH: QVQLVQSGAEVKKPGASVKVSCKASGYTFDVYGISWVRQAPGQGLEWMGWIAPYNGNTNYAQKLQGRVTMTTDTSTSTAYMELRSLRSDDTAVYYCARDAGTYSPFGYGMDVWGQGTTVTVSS VL: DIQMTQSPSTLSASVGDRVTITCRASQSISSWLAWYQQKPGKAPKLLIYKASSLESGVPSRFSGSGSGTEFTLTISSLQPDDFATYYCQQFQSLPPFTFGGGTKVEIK", "%", 43],
  ["25G1 (antibody, human IgG1, kappa, V domains shown) VH: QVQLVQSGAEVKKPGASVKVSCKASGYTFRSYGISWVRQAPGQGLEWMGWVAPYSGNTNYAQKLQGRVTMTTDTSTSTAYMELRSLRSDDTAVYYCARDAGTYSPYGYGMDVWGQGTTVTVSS VL: DIQMTQSPSTLSASVGDRVTITCRASHSIDSWLAWYQQKPGKAPKLLIYKASYLESGVPSRFSGSGSGTEFTLTISSLQPDDFATYYCQLFQSLPPFTFGGGTKVEIKR", "%", 46],
  ["25G (antibody, human IgG1, kappa, V domains shown, Human anti-TF IgG1) VH: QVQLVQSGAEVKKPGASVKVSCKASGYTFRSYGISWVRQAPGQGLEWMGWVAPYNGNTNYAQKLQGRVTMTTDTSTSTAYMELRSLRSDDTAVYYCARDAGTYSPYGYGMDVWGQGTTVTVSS VL: DIQMTQSPSTLSASVGDRVTITCRASQSISSWLAWYQQKPGKAPKLLIYKASSLESGVPSRFSGSGSGTEFTLTISSLQPDDFATYYCQQFQSLPPFTFGGGTKVEIKR", "%", 60],
  ["43B7 (antibody, V domains shown) VH: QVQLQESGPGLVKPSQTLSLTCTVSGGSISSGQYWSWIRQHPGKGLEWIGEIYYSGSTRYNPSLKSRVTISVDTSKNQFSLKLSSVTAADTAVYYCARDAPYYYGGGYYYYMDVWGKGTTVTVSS VL: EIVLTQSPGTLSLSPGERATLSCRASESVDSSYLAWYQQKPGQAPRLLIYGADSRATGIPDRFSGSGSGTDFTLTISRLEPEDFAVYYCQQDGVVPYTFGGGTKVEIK", "%", 55],
  ["54E (antibody, V domains shown, Human anti-TF IgG1) VH: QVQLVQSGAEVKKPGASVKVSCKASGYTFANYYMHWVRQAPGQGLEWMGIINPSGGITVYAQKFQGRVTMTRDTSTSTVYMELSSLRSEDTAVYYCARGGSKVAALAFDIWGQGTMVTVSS VL: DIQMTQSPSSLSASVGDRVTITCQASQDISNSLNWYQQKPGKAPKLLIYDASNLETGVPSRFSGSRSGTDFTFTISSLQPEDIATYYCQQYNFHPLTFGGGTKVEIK", "%", 48]
]}

Challenge: For the binder 25G9 (antibody, human IgG1, kappa, V domains shown) VH: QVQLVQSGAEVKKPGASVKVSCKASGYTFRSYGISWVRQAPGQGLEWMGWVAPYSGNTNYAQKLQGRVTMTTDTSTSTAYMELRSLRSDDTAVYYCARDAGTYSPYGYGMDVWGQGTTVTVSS VL: DIQMTQSPSTLSASVGDRVTITCQASQSIDSWLAWYQQKPGKAPKLLIYSASYLESGVPSRFSGSGSGTEFTLTISSLQPDDFATYYCQRFQSLPPFTFGGGTKVEIKR , what % IL8, 2.56 nM Ab is on record?
Response given: 51
